Answer each item with its documented pIC50.
- measured-target: Sodium channel protein type 10 subunit alpha (Homo sapiens, UniProt Q9Y5Y9)
- Sequence (Q9Y5Y9 whole entry, looked up): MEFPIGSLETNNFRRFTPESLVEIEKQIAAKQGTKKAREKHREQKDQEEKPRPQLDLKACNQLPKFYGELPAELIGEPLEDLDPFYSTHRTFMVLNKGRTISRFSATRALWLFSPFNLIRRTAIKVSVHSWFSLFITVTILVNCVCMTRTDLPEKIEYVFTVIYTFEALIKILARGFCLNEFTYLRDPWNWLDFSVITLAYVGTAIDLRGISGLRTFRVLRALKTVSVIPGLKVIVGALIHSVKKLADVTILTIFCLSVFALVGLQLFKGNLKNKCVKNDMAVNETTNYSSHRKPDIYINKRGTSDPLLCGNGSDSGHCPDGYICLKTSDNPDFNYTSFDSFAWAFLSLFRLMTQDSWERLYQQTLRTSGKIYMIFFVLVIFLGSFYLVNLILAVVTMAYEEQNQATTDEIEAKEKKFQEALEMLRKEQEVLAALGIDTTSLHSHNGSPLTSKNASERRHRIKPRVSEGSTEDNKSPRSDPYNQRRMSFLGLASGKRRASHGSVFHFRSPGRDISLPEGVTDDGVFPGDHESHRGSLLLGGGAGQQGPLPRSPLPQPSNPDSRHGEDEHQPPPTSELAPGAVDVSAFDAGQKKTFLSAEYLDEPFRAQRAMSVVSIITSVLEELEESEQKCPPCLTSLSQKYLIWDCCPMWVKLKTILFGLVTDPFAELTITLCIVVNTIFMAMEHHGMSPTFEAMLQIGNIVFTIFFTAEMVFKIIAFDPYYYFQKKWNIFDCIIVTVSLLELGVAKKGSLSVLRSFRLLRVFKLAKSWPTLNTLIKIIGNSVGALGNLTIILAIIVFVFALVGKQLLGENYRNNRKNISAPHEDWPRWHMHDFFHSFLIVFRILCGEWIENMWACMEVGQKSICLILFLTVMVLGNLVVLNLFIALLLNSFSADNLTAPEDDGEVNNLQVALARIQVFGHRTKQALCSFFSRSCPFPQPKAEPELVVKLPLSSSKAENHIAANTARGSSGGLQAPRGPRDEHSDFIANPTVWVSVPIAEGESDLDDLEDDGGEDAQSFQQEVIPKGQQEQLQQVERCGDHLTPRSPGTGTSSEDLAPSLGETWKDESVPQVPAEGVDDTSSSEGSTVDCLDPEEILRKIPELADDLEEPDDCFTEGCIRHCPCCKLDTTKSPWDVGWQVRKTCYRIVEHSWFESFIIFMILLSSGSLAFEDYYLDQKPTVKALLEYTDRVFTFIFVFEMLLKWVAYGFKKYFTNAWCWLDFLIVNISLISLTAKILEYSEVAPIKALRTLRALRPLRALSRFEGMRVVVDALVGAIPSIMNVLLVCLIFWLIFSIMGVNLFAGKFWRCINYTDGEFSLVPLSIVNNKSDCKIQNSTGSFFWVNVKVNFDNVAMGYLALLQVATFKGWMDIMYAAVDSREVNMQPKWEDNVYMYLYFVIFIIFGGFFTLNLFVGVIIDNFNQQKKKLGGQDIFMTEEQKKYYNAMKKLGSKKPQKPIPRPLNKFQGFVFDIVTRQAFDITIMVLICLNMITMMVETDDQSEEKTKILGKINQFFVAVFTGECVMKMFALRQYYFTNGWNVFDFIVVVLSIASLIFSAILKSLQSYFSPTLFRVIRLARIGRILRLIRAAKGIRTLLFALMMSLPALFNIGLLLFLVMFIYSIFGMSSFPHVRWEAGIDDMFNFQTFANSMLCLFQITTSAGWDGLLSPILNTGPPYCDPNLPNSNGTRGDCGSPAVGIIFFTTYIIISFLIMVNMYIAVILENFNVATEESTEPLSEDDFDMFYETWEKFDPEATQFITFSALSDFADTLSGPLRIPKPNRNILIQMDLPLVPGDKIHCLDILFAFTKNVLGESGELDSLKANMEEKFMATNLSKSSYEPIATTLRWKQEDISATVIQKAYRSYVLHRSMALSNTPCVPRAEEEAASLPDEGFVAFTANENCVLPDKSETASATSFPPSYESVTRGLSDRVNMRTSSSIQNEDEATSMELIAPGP
- test-details: Inhibition of human Nav1.8 by FRET based membrane potential assay
One number for each entry, as −log10 of the molar value.

CN1CCN(C(=O)COc2ccc3cc(Oc4ccccn4)ccc3n2)CC1
5.74

Ask | # lookup: pIC50 of `N#Cc1ccc(Oc2ccc3c(ccc(=O)n3CCN3CCCCC3)c2)cc1`
Reply | 7.10

----------
- test-details: in vivo
- settings: Sprague-Dawley, rat, po
measured-property: half-life

Some compounds with known half-life results, for comparison:
O=C(c1ccc2cc(Oc3ccc(C(F)(F)F)cn3)ccc2n1)N1CCNCC1
12.8 h
O=C(c1ccc2cc(Oc3ccc(C(F)F)cn3)ccc2n1)N1CCNCC1
3.38 h
O=C(c1ccc2cc(Oc3ccc(C(F)(F)F)cn3)ccc2n1)N1CCNC(C(F)(F)F)C1 (centres undefined)
3.17 h

Proceed to the following item.
Ask | # lookup: half-life of `O=C(c1ccc2cc(Oc3ccc(C(F)(F)F)cn3)ccc2n1)N1CC[C@H](F)C1`
Reply | 3.67 h
